Tested on: HTT mRNA
method: Gene panel canonical junction qPCR assay, decrease in CJ mRNA, Table 3
Format: cell-based
cond: decrease in CJ mRNA levels, canonical junction qPCR, gene panel
measurement-name: IC50

| compound | assay-value |
| --- | --- |
| COc1c(NC(=O)c2ccc(N3CCC(NC4CC4)CC3)c3c2OCO3)cn2cc(C)nc2c1F | < 0.1 µM |
| CCNC1CCN(c2ccc(C(=O)Nc3cc4cn(C)nc4cc3OC)c3nc(C)cn23)CC1 | 0.1 to 1 µM |
| COC(=O)NCc1cc(NC(=O)c2ccc(N3CCC(NC4CC4)CC3)c3cn(C)nc23)cc2cn(C)nc12 | > 10 µM |
| COc1cc2c(N3C[C@H](C)N[C@@H](C)C3)ccc(C(=O)Nc3cc(F)c4nn(C)cc4c3)c2o1 | 1 to 10 µM |
| CCNC1C(C)CN(c2ccc(C(=O)Nc3cn4cc(C)nc(C)c4n3)c3nn(C)cc23)CC1C (stereo not shown) | > 10 µM |
| COc1nc2c(C(=O)Nc3cc(C)c4nn(C)cc4c3OC)ccc(N3C[C@H](C)N[C@@H](C)C3)c2s1 | 1 to 10 µM |
| Cn1cc2cc(NC(=O)c3ccc(N4CCC(NC5CC5)CC4)c4cn(C)nc34)cc(CO)c2n1 | > 10 µM |
| Cc1cn2cc(NC(=O)c3ccc(N4CCC(NC5CC5)CC4)c4cn(C)nc34)nc2c(CNS(C)(=O)=O)n1 [Compound 694, 2,2,2-trifluoroacetate] | > 10 µM |
| Cn1cc2cc(NC(=O)c3ccc(N4CCC(NC5CC5)CC4)c4cn(C)nc34)cc(Cn3nccn3)c2n1 | > 10 µM |
| COc1nc2c(N3CCC(NC4CC4)CC3)ccc(C(=O)Nc3cc4cn(C)nc4cc3OC)c2o1 | 1 to 10 µM |
| CCNC1CCN(c2ccc(C(=O)Nc3cc4cn(C)nc4cc3OC)c3nn(C)cc23)C(C)(C)C1 (stereo not shown) | > 10 µM |
| Cn1cc2cc(NC(=O)c3ccc(N4CCC(NC5CC5)CC4)c4cn(C)nc34)c(O)c(CNS(C)(=O)=O)c2n1 | > 10 µM |
| COc1nc2nc(C)cn2cc1NC(=O)c1cnc(N2CCC(NC3CC3)CC2)c2cn(C)nc12 | 0.1 to 1 µM |
| CNC1CCN(c2ccc(C(=O)Nc3cn4cc(C)nc(CNS(C)(=O)=O)c4n3)c3nn(C)cc23)CC1 | > 10 µM |
| Cc1cn2cc(NC(=O)c3ccc(NC(=O)c4ncc[nH]4)c4[nH]cnc34)cc(F)c2n1 [Compound 610, 2,2,2-trifluoroacetate] | > 10 µM |
| COc1cc2nn(C)cc2cc1NC(=O)c1ccc(N2CCC(NC3CC3)CC2)c2cc(CF)nn12 | 0.1 to 1 µM |
| Cc1cn2cc(NC(=O)c3ccc(N4C[C@@H](C)N[C@@H](C)C4)c4c3nnn4C)cc(F)c2n1 | 1 to 10 µM |
| COc1nc2c(C(=O)Nc3cc(F)c4nn(C)cc4c3)ccc(N3C[C@@H](C)N(C)[C@@H](C)C3)c2s1 | 1 to 10 µM |
| COc1nc2c(C(=O)Nc3cc4cn(C)nc4cc3OC)ccc(N3CCC(NC4CC4)CC3)c2s1 [Compound 668, 2,2,2-trifluoroacetate] | 1 to 10 µM |
| C=CCNC1CCN(c2ccc(C(=O)Nc3cc(CNC(=O)OC)c4nn(C)cc4c3)c3nn(C)cc23)CC1 | 1 to 10 µM |
| COc1nc2c(C(=O)Nc3cc(CNC(C)=O)c4nn(C)cc4c3)ccc(N3C[C@H](C)N[C@@H](C)C3)c2s1 | > 10 µM |
| COc1nc2c(C(=O)Nc3cc(F)c4nc(CO)cn4c3)ccc(N3C[C@H](C)N[C@@H](C)C3)c2s1 | 1 to 10 µM |
| Cc1cc2c(N3CCC(NC4CC4)CC3)ccc(C(=O)Nc3cc(CO)c4nn(C)cc4c3)n2n1 | 1 to 10 µM |
| COc1nc2c(C(=O)Nc3cc(F)c4nn(C)cc4c3)ccc(N3C[C@@H](C)NC4(CC4)C3)c2s1 | > 10 µM |
| COc1nc2c(C(=O)Nc3cc(F)c4nc(C)cn4c3)ccc(N3CCC(NC4CC4)CC3)c2o1 | < 0.1 µM |
| Cc1cn2cc(NC(=O)c3ccc(N4C[C@@H](C)N[C@@H](C)C4)c4c3OC(F)(F)O4)cc(F)c2n1 | > 10 µM |
| COc1cc2c(N3C[C@H](C)N[C@@H](C)C3)ccc(C(=O)Nc3cc4cn(C)nc4cc3OC)n2n1 | 1 to 10 µM |
| CCNC1CCN(c2ccc(C(=O)Nc3cc4cn(C)nc4cc3OC)c3nn(C)cc23)C(C)C1 (stereo not shown) [Compound 736, 2,2,2-trifluoroacetate] | > 10 µM |

====

Here the recorded IC50 is given for each entry.
System: MYB mRNA
method: Gene panel canonical junction qPCR assay, decrease in CJ mRNA, Table 3
Assay type: cell-based
cond: decrease in canonical junction (CJ) mRNA, gene panel qPCR, Table 3
measurement-name: IC50

| molecular-string | assay-value |
| --- | --- |
| CCNC1CCN(c2ccc(C(=O)Nc3cc(F)c4nc(C)cn4c3)c3[nH]ncc23)CC1 | 100 to 1000 nM |
| COc1c(NC(=O)c2c(F)cc(N3CC[C@H](NC4CC4)C4(CC4)C3)c3cn(C)nc23)cn2cc(C)nc2c1F | < 100 nM |
| COc1nc2nccn2cc1NC(=O)c1ccc(N2CCC(NC3CC3)CC2)c2cn(C)nc12 | 1000 to 10000 nM |
| CN[C@@H]1CCN(c2ccc(C(=O)Nc3cc(F)c4nc(C)cn4c3)c3nn(C)cc23)[C@H]1C | 1000 to 10000 nM |
| COc1cc2nn(C)cc2cc1NC(=O)c1ccc(OC2CCNCC2)c2cn(C)nc12 | 100 to 1000 nM |
| Cc1cc2[nH]c(NC(=O)c3ccc(N4CCC(NC5CC5)CC4)c4cn(C)nc34)nc2c(C)n1 | > 10000 nM |
| Cc1cn2cc(NC(=O)c3ccc(N4CCC(NC5CC5)CC4)c4cn(C)nc34)nc2c(-c2cnn[nH]2)n1 | > 10000 nM |

====

Tested on: MYB mRNA
method: Gene panel canonical junction qPCR assay, decrease in CJ mRNA, Table 3
Format: cell-based
cond: decrease in CJ mRNA levels, canonical junction qPCR, gene panel
measurement-name: IC50

| compound | measurement-name | assay-value |
| --- | --- | --- |
| COc1nc2c(C(=O)Nc3cn4cc(C)nc(C)c4n3)ccc(N3CCC(NC4CC4)CC3)c2s1 [Compound 667, 2,2,2-trifluoroacetate] | IC50 | > 10 µM |
| COc1nc2c(C(=O)Nc3cc4cn(C)nc4cc3OC)ccc(N3C[C@H](C)N[C@@H](C)C3)c2s1 | IC50 | 0.1 to 1 µM |
| Cc1cn2cc(NC(=O)c3ccc(N4CCC(NC5CC5)CC4)c4cn(C)nc34)cc(CNS(C)(=O)=O)c2n1 | IC50 | 1 to 10 µM |
| CCNCc1nc(C)cn2cc(NC(=O)c3ccc(N4CCC(NC5CC5)CC4)c4cn(C)nc34)nc12 | IC50 | > 10 µM |

====

Here the recorded IC50 is given for each entry.
System: MYB mRNA
method: Gene panel canonical junction qPCR assay, decrease in CJ mRNA, Table 3
Assay type: cell-based
cond: decrease in canonical junction (CJ) mRNA, gene panel qPCR, Table 3

| compound | IC50 |
| --- | --- |
| CCNC1CCN(c2cc(F)c(C(=O)Nc3cn4cc(C)nc(C#N)c4n3)c3nn(C)cc23)CC1 [Compound 390] | 0.1 to 1 µM |
| COc1ccncc1NC(=O)c1c(F)cc(N2CCC(NC3CC3)CC2)c2cn(C)nc12 [Compound 414] | > 10 µM |
| Cc1cn2cc(NC(=O)c3ccc(N4CCC(NC5CC5)CC4)c4cn(C)nc34)cc(Oc3ccnnc3)c2n1 [Compound 322] | 1 to 10 µM |
| CNC1CCN(c2ccc(NC(=O)c3cc4cn(C)nc4cc3OC)c3nn(C)cc23)CC1 [Compound 521] | > 10 µM |

====

Here the recorded IC50 is given for each entry.
Test system: HTT mRNA
method: Splicing RT-qPCR assay (THP), Table 2A
Type: cell-based
cond: Table 2A (THP), CJ mRNA decrease, read-out: HTT CJ (decrease in canonical junction mRNA, IC50)
measurement-name: IC50

| molecular-string | measurement-name | assay-value |
| --- | --- | --- |
| Cc1cn2cc(NC(=O)c3ccc(N4CCC(NC5CC5)CC4)c4cn(C)nc34)nc2c(Cl)n1 | IC50 | > 10 µM |
| Cc1cn2cc(NC(=O)c3ccc(N4CCC(NC5CC5)CC4)c4cn(C)nc34)nc2c(-c2cnn[nH]2)n1 | IC50 | > 10 µM |
| COc1cc2nn(C)cc2cc1NC(=O)c1ccc(OC2CCNCC2)c2cn(C)nc12 | IC50 | 0.1 to 1 µM |
| COc1c(NC(=O)c2c(F)cc(N3CC[C@H](NC4CC4)C4(CC4)C3)c3cn(C)nc23)cn2cc(C)nc2c1F | IC50 | 1 to 10 µM |
| CCNC1CCN(c2ccc(C(=O)Nc3cc(Oc4ccc(Cl)cc4)c4nc(C)cn4c3)c3nn(C)cc23)CC1 | IC50 | 1 to 10 µM |
| Cc1nc(CN)cn2cc(NC(=O)c3c(F)cc(N4CCC(NC5CC5)CC4)c4cn(C)nc34)nc12 | IC50 | > 10 µM |
| COc1nc2nn(C)cc2cc1NC(=O)c1ccc(N2CCC(NC3CC3)CC2)c2cn(C)nc12 | IC50 | 1 to 10 µM |
